Tested on: enzyme of SEQ ID NO:1
Assay: Screening of carbonyl-containing compounds with ammonia as amine source (specific activity, absorbance at 340 nm)
Assay type: biochemical, Mycobacterium smegmatis
Conditions: 0.2 mM NADPH (best of NADH/NADPH); 10 mM of carbonyl-containing compound; ammonia as amine source
Marks after values point to notes of the source that are not given here.
// values below are reported Specific activity, SEQ ID NO: 1
test_readout: Specific activity, SEQ ID NO: 1

| compound | test_readout | result |
| --- | --- | --- |
| CC(=O)C1CCCCC1 | Specific activity, SEQ ID NO: 1 | 2.1^b mU.mg^-1 |
| CC1CCC(=O)C1 (stereo not drawn) | Specific activity, SEQ ID NO: 1 | 7.7^b mU.mg^-1 |
| CCC(C)C=O (stereo not drawn) [drawing 148] | Specific activity, SEQ ID NO: 1 | 75.2^b mU.mg^-1 |
| CCC(=O)CC | Specific activity, SEQ ID NO: 1 | 48.2^b mU.mg^-1 |
| CCCC(C)=O [drawing 142] | Specific activity, SEQ ID NO: 1 | 9.0^b mU.mg^-1 |
| O=C1C=CCCC1 | Specific activity, SEQ ID NO: 1 | 7.4^b mU.mg^-1 |
| O=C1CCCC1 | Specific activity, SEQ ID NO: 1 | 5.6^b mU.mg^-1 |
| CC(=O)C(C)O (stereo not drawn) | Specific activity, SEQ ID NO: 1 | 177.7^b mU.mg^-1 |
| CCCC(=O)CC | Specific activity, SEQ ID NO: 1 | 6.8^b mU.mg^-1 |
| CC1CCCC1=O (stereo not drawn) | Specific activity, SEQ ID NO: 1 | 65.2^b mU.mg^-1 |
| CCCCC=O [drawing 146] | Specific activity, SEQ ID NO: 1 | 26.8^b mU.mg^-1 |
| CC(=O)C(C)C | Specific activity, SEQ ID NO: 1 | 125.8^b mU.mg^-1 |
| CC1CCCCC1=O (racemic) | Specific activity, SEQ ID NO: 1 | 175.3 mU.mg^-1 |
| CC1CC(=O)CC(C)C1 (stereo not drawn) | Specific activity, SEQ ID NO: 1 | 9.7^b mU.mg^-1 |
| CC1CCCC(=O)C1 (racemic) | Specific activity, SEQ ID NO: 1 | 160.9 mU.mg^-1 |

// data source = patent US11118200B2
